system: HeLa Kyoto; experiment: solubility in G1/S (NP-40 vs SDS abundance) (log2 ratio); higher = more soluble; details: cell cycle stage: G1/S
Form field: solubility in G1/S (log2) (one value per entry).
measurement-name: solubility in G1/S (log2)

record_sequence="MPVWGGGNKCGACGRTVYHAEEVQCDGRSFHRCCFLCMVCRKNLDSTTVAIHDEEIYCKSCYGKKYGPKGYGYGQGAGTLNMDRGERLGIKPESVQPHRPTTNPNTSKFAQKYGGAEKCSRCGDSVYAAEKIIGAGKPWHKNCFRCAKCGKSLESTTLTEKEGEIYCKGCYAKNFGPKGFGYGQGAGALVHAQ [CSRP2]" measurement_name="solubility in G1/S (log2)" result=-0.179
record_sequence="MTAVNVALIRDTKWLTLEVCREFQRGTCSRADADCKFAHPPRVCHVENGRVVACFDSLKGRCTRENCKYLHPPPHLKTQLEINGRNNLIQQKTAAAMFAQQMQLMLQNAQMSSLGSFPMTPSIPANPPMAFNPYIPHPGMGLVPAELVPNTPVLIPGNPPLAMPGAVGPKLMRSDKLEVCREFQRGNCTRGENDCRYAHPTDASMIEASDNTVTICMDYIKGRCSREKCKYFHPPAHLQARLKAAHHQMNHSAASAMALQPGTLQLIPKRSALEKPNGATPVFNPTVFHCQQALTNLQLPQPAFIPAGPILCMAPASNIVPMMHGATPTTVSAATTPATSVPFAAPTTGNQLKF [MBNL3]" measurement_name="solubility in G1/S (log2)" result=0.0798

====

test system: HeLa Kyoto; experiment: thermal stability score vs G1/S (z-score of summed log2 fold changes over temperatures); higher = more thermally stable than in G1/S; conditions: cell cycle stage: mitosis
measurement-name: thermal stability score

record_sequence="MAMNYNAKDEVDGGPPCAPGGTAKTRRPDNTAFKQQRLPAWQPILTAGTVLPIFFIIGLIFIPIGIGIFVTSNNIREIEIDYTGTEPSSPCNKCLSPDVTPCFCTINFTLEKSFEGNVFMYYGLSNFYQNHRRYVKSRDDSQLNGDSSALLNPSKECEPYRRNEDKPIAPCGAIANSMFNDTLELFLIGNDSYPIPIALKKKGIAWWTDKNVKFRNPPGGDNLEERFKGTTKPVNWLKPVYMLDSDPDNNGFINEDFIVWMRTAALPTFRKLYRLIERKSDLHPTLPAGRYSLNVTYNYPVHYFDGRKRMILSTISWMGGKNPFLGIAYIAVGSISFLLGVVLLVINHKYRNSSNTADITI [TMEM30A]" subject_of_test="HeLa Kyoto" result=0.594
record_sequence="MSSAPRSPTPRPRRMKKDESFLGKLGGTLARKRRAREVSDLQEEGKNAINSPMSPALVDVHPEDTQLEENEERTMIDPTSKEDPKFKELVKVLLDWINDVLVEERIIVKQLEEDLYDGQVLQKLLEKLAGCKLNVAEVTQSEIGQKQKLQTVLEAVHDLLRPRGWALRWSVDSIHGKNLVAILHLLVSLAMHFRAPIRLPEHVTVQVVVVRKREGLLHSSHISEELTTTTEMMMGRFERDAFDTLFDHAPDKLSVVKKSLITFVNKHLNKLNLEVTELETQFADGVYLVLLMGLLEDYFVPLHHFYLTPESFDQKVHNVSFAFELMLDGGLKKPKARPEDVVNLDLKSTLRVLYNLFTKYKNVE [PARVB]" subject_of_test="HeLa Kyoto" result=0.496
record_sequence="MSAYPKSYNPFDDDGEDEGARPAPWRDARDLPDGPDAPADRQQYLRQEVLRRAEATAASTSRSLALMYESEKVGVASSEELARQRGVLERTEKMVDKMDQDLKISQKHINSIKSVFGGLVNYFKSKPVETPPEQNGTLTSQPNNRLKEAISTSKEQEAKYQASHPNLRKLDDTDPVPRGAGSAMSTDAYPKNPHLRAYHQKIDSNLDELSMGLGRLKDIALGMQTEIEEQDDILDRLTTKVDKLDVNIKSTERKVRQL [SNAP29]" subject_of_test="HeLa Kyoto" result=-2.04

====

system: HeLa Kyoto; assay: solubility change mitosis vs G1/S (difference of NP-40 vs SDS log2 ratios) (log2 ratio difference); higher = more soluble in mitosis
Form field: solubility change mitosis (log2) (one value per entry).
measurement-name: solubility change mitosis (log2)

record_sequence="MAARTVIIDHGSGFLKAGTAGWNEPQMVFPNIVNYLPCKENPGPSYARRRVSLGIDICHPDTFSYPIERGRILNWEGVQYLWSFVLENHRREQEVPPVIITETPLREPADRKKMLEILFELLHVPSVLLADQLQMSLYASGLLTGVVVDSGYGLTRVQPFHQGRPLPASGKTLEFAGQDLSAYLLKSLFKEDCDRRCLFQLETVAVTQMNKCYVPQNLGEALDFRERQQSALDESNTYQLPDGSRVELTPMQRVAPEMFFSPQVFEQPGPSIPRAIVESVESCEISLRPLLVSHVMACGGNTLYPGFTKRLFRELMGDHVSSTKATVWEGSNRNFSVWLGASVVAHLSTYQSEWMSREEYGEHMRM [ACTL8]" result=0.0715
record_sequence="MGAAHSASEEVRELEGKTGFSSDQIEQLHRRFKQLSGDQPTIRKENFNNVPDLELNPIRSKIVRAFFDNRNLRKGPSGLADEINFEDFLTIMSYFRPIDTTMDEEQVELSRKEKLRFLFHMYDSDSDGRITLEEYRNVVEELLSGNPHIEKESARSIADGAMMEAASVCMGQMEPDQVYEGITFEDFLKIWQGIDIETKMHVRFLNMETMALCH [TESC]" result=0.0705
record_sequence="MKDRLEQLKAKQLTQDDDTDAVEIAIDNTAFMDEFFSEIEETRLNIDKISEHVEEAKKLYSIILSAPIPEPKTKDDLEQLTTEIKKRANNVRNKLKSMEKHIEEDEVRSSADLRIRKSQHSVLSRKFVEVMTKYNEAQVDFRERSKGRIQRQLEITGKKTTDEELEEMLESGNPAIFTSGIIDSQISKQALSEIEGRHKDIVRLESSIKELHDMFMDIAMLVENQGEMLDNIELNVMHTVDHVEKARDETKKAVKYQSQARKKLIIIIVLVVVLLGILALIIGLSVGLN [STX3]" result=0.0981

====

system: HeLa Kyoto; test: melting temperature (median over replicates), in situ; higher = more thermally stable; conditions: cell cycle stage: mitosis
measurement-name: melting temperature (°C)

record_sequence="MADFLPSRSVLSVCFPGCLLTSGEAEQQRKSKEIDKCLSREKTYVKRLVKILLLGAGESGKSTFLKQMRIIHGQDFDQRAREEFRPTIYSNVIKGMRVLVDAREKLHIPWGDNSNQQHGDKMMSFDTRAPMAAQGMVETRVFLQYLPAIRALWADSGIQNAYDRRREFQLGESVKYFLDNLDKLGEPDYIPSQQDILLARRPTKGIHEYDFEIKNVPFKMVDVGGQRSERKRWFECFDSVTSILFLVSSSEFDQVLMEDRLTNRLTESLNIFETIVNNRVFSNVSIILFLNKTDLLEEKVQIVSIKDYFLEFEGDPHCLRDVQKFLVECFRNKRRDQQQKPLYHHFTTAINTENIRLVFRDVKDTILHDNLKQLMLQ [GNA13]" result=53.5
record_sequence="MAASGKLSTCRLPPLPTIREIIKLLRLQAAKQLSQNFLLDLRLTDKIVRKAGNLTNAYVYEVGPGPGGITRSILNADVAELLVVEKDTRFIPGLQMLSDAAPGKLRIVHGDVLTFKVEKAFSESLKRPWEDDPPNVHIIGNLPFSVSTPLIIKWLENISCRDGPFVYGRTQMTLTFQKEVAERLAANTGSKQRSRLSVMAQYLCNVRHIFTIPGQAFVPKPEVDVGVVHFTPLIQPKIEQPFKLVEKVVQNVFQFRRKYCHRGLRMLFPEAQRLESTGRLLELADIDPTLRPRQLSISHFKSLCDVYRKMCDEDPQLFAYNFREELKRRKSKNEEKEEDDAENYRL [TFB1M]" result=51.4
record_sequence="MGTRDDEYDYLFKVVLIGDSGVGKSNLLSRFTRNEFNLESKSTIGVEFATRSIQVDGKTIKAQIWDTAGQERYRAITSAYYRGAVGALLVYDIAKHLTYENVERWLKELRDHADSNIVIMLVGNKSDLRHLRAVPTDEARAFAEKNNLSFIETSALDSTNVEEAFKNILTEIYRIVSQKQIADRAAHDESPGNNVVDISVPPTTDGQKPNKLQCCQNL [RAB11B]" result=57.5

====

system: HeLa Kyoto; assay: solubility change mitosis vs G1/S (difference of NP-40 vs SDS log2 ratios) (log2 ratio difference); higher = more soluble in mitosis
measurement-name: solubility change mitosis (log2)

record_sequence="MICLVLTIFANLFPAACTGAHERTFLAVKPDGVQRRLVGEIVRRFERKGFKLVALKLVQASEELLREHYAELRERPFYGRLVKYMASGPVVAMVWQGLDVVRTSRALIGATNPADAPPGTIRGDFCIEVGKNLIHGSDSVESARREIALWFRADELLCWEDSAGHWLYE [NME3]" subject_of_test="HeLa Kyoto" result=-0.0854
record_sequence="MDIAIHHPWIRRPFFPFHSPSRLFDQFFGEHLLESDLFPTSTSLSPFYLRPPSFLRAPSWFDTGLSEMRLEKDRFSVNLDVKHFSPEELKVKVLGDVIEVHGKHEERQDEHGFISREFHRKYRIPADVDPLTITSSLSSDGVLTVNGPRKQVSGPERTIPITREEKPAVTAAPKK [CRYAB]" subject_of_test="HeLa Kyoto" result=0.00397
